- Target desc: T1, matriptase (#3946-SE-010, R&D Systems) (UniProt Q9Y5Y6 615-855)
- T1 sequence (looked up): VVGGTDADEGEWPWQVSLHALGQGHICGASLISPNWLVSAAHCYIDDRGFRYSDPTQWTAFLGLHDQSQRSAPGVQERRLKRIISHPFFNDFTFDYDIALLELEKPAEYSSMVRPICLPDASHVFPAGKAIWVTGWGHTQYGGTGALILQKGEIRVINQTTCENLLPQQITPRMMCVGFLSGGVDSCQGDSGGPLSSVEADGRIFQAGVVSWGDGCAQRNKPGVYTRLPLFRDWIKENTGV
- Assay name: cell-based or functional assay
*: point of attachment. X9 = 1‑((5-chloro-2-methoxyphenyl)sulfonyl)piperidin‑4‑yl carbamate, COc1ccc(Cl)cc1S(=O)(=O)N1CCC(OC(=O)*)CC1; X5 = 1‑acetyl‑4‑phenethylpiperidin‑4‑yl carbamate, CC(=O)N1CCC(CCc2ccccc2)(OC(=O)*)CC1; X2 = 1‑(ethylsulfonyl)piperidin‑4‑yl carbamate, CCS(=O)(=O)N1CCC(OC(=O)*)CC1; X1 = 4‑phenylpiperidin‑4‑yl carbamate, O=C(OC1(c2ccccc2)CCNCC1)*; kbt = C-terminal Arg ketobenzothiazole
Give Matriptase IC50 for every item shown.
Form entry: value (nM) — number only.

[in] For the binder X9-Leu-Arg-kbt [1-((5-chloro-2-methoxyphenyl)sulfonyl)piperidin-4-yl Leu-Arg-kbt carbamate (8l)] , report Matriptase IC50.
[out] 4000

[in] For the binder X5-Leu-Arg-kbt [1-acetyl-4-phenethylpiperidin-4-yl Leu-Arg-kbt carbamate (8c)] , report Matriptase IC50.
[out] 70

[in] For the binder X2-Leu-Arg-kbt [1-(ethylsulfonyl)piperidin-4-yl Leu-Arg-kbt carbamate (8h)] , report Matriptase IC50.
[out] 730

[in] For the binder X1-Leu-Arg-kbt , report Matriptase IC50.
[out] 90
